# EXPERIMENT DESCRIPTION: Caspase-3/7 induction in CHO-K1 cells by small molecules, qHTS assay (AID 1346980); note: nearly all actives have a fitted effect of over 15% in size
# EXPERIMENTAL CONDITIONS: CHO-K1 caspase-3/7 induction, Caspase-Glo luminescence, 17 h; series mostly up to 92.4 µM
Active and inactive are the calls of the source. Calls come from the whole dose curve; as a rule, active = well fitted activation curve with a large enough effect in the repeat runs; inconclusive = weak or mixed curves; inactive = flat fitted curve, though single readings scatter.
Can you answer with just one of these options? active, inactive

Outcome? `C=C1c2cccc(O)c2C(O)=C2C(=O)[C@]3(O)C(O)=C(C(N)=O)C(=O)[C@@H](N(C)C)[C@@H]3[C@@H](O)[C@H]12`
inactive

Outcome? `Brc1cc2ccccc2c2ccccc12`
inactive

Outcome? `Brc1cc(Br)c(Oc2cc(Br)c(Br)cc2Br)cc1Br`
inactive

Outcome? `Cc1cccc(N(C)C(=S)Oc2ccc3c(c2)CCC3)c1`
inactive

Outcome? `C=C(C)C(=O)OCCCCCCCCCCCCC`
inactive

Outcome? `C[C@@H](O)[C@H]1C(=O)N2C(C(=O)O)=C([C@H]3CCCO3)S[C@H]12`
inactive

Outcome? `COC(=O)[C@H]1[C@H]2C[C@@H]3c4[nH]c5cc(OC)ccc5c4CCN3C[C@H]2C[C@@H](OC(=O)/C=C/c2ccc(O)c(OC)c2)[C@@H]1OC`
inactive

Outcome? `O=C=Nc1cccc(C(F)(F)F)c1`
inactive

Outcome? `CN1CC(=O)N2[C@H](c3ccc4c(c3)OCO4)c3[nH]c4ccccc4c3C[C@@H]2C1=O`
inactive

Outcome? `Oc1ccc(Cl)c2cccnc12`
active
